List of pKd values.
system-under-test: T1, rmCIRP (recombinant murine cold-inducible RNA-binding protein) (mouse, UniProt P60824 1-172)
T1 sequence: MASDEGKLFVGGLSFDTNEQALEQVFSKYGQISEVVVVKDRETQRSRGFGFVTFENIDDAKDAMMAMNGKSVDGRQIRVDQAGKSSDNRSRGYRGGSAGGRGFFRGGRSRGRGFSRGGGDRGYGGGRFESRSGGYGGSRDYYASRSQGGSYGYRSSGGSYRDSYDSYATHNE
experiment: SPR; RNA immobilized on SA chip; SPR (BIAcore T200), 1X HBS-EP running buffer; rmCIRP 7.8-500 nM over RNA; pH and temperature not stated
condition-summary: single strand
Please treat pKd as minus the base-10 logarithm of the molar concentration.

Input: // pKd lookup, key: CAGUGGUUUUACCCUAUGGUAG (ssRNA) [miRNA 140 mimic (140-5p), biotinylated]
Output: 6.80

// switching to the query binder
Input: // pKd lookup, key: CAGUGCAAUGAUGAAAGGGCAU (ssRNA) [miRNA 130b-3p mimic, biotinylated]
Output: 7.30
